# System: primary human T-cells
# ASSAY_OVERVIEW: Proliferation assay after 5 days (CellTiter-Glo, CD3 stimulation; PBS counter screen)
# Assay type: cell-based
# ASSAY_CONDITIONS: Homo sapiens, T-cell, 120 h, primary human T-cells, CD3 stimulation, CellTiter-Glo after 5 days; EC50 of fitted sigmoidal curve; read-out: Tcell Proliferation CD3 EC50
# Experimental: Compounds are then added (see next section) to medium only plates. Cells are assessed for proliferation 5 days later by measuring […] using CellTiterGlo (Promega). After 5 days, for detection of ATP which is directly proportional to the number of cells present per well, the CellTiter-Glo® 2.0 Reagent is used. […] Luminescence is measured with PHERAstar FSX (interval time 0.5 sec, gain 3000, focal height 15 mm) and exported as CSV file for analysis in Genedata screener. […]
VALUE_KIND: EC50

Reference set, count: 5
1) N[C@H]1CS(=O)(=O)c2ccc(-c3nnc(N4CC5(CCC5)C4)o3)cc2N(Cc2ccc(Cl)cc2)C1=O [Example 398]; 3480 nM
2) N[C@H]1CS(=O)(=O)c2cc(F)c(-c3nnc(N4CCOC5(CC5)C4)o3)cc2N(Cc2ccc(Cl)cc2)C1=O [Example 472]; 116 nM
3) N[C@H]1CS(=O)(=O)c2ccc(-c3nc(CC(F)(F)F)no3)nc2N(Cc2ccc(Cl)cc2)C1=O [Example 39]; 486 nM
4) N[C@H]1CS(=O)(=O)c2ccc(-c3nnc(C4(C5CC5)CCCO4)o3)cc2N(Cc2ccc(Cl)cc2)C1=O (some centres unmarked) [Example 381]; 2420 nM
5) CC(C)(C)c1nnc(-c2cc3c(cc2F)S(=O)(=O)C[C@H](N)C(=O)N3Cc2ccc(OCCCCCCCCCCCN)cc2)o1 [Example 257]; < 162 nM

Q: Consider the compound COC1(c2nnc(-c3ccc4c(c3)N(Cc3ccc(Cl)cc3)C(=O)[C@@H](N)CS4(=O)=O)o2)CCC(F)(F)CC1 [Example 378] and give its measured EC50.
A: 447 nM

Q: Consider the compound CN1CC(c2nc(-c3cc4c(cc3F)S(=O)(=O)C[C@H](N)C(=O)N4Cc3ccc(Cl)cc3)no2)CC(C)(C)C1 (some centres unmarked) [Example 324] and give its measured EC50.
A: 341 nM

Q: Consider the compound CN1CCN(CC(C)(C)c2nnc(-c3cc4c(cc3F)S(=O)(=O)C[C@H](N)C(=O)N4Cc3ccc(Cl)cc3)o2)CC1 [Example 148] and give its measured EC50.
A: > 10000 nM

Q: Consider the compound N[C@H]1C[S+]([O-])c2cc(F)c(-c3noc(N4CCOCC4)n3)cc2N(Cc2ccc(Cl)cc2)C1=O (single isomer, unassigned; epimer a) [Example 209] and give its measured EC50.
A: 4100 nM

Q: Consider the compound N[C@H]1CS(=O)(=O)c2cc(F)c(-c3nnc(C4(C(F)(F)F)CC4)o3)cc2N(Cc2ccc(Cl)cc2)C1=O [Example 126] and give its measured EC50.
A: 113 nM

---

# Emax values compiled below
# Tested on: primary human T-cells
# ASSAY_OVERVIEW: Proliferation assay after 5 days (CellTiter-Glo, CD3 stimulation; PBS counter screen)
# Type: cell-based
# ASSAY_CONDITIONS: Homo sapiens, T-cell, 120 h, CD3 stimulation, 5 days; normalized to reference compound A1 as stimulator control = 100%, DMSO neutral control; read-out: Emax proliferation (% activation)
Express your answer in %, writing the number without its unit.

1) CN1CCCC(n2nnc(-c3cc4c(cc3F)S(=O)(=O)C[C@H](N)C(=O)N4Cc3ccc(Cl)cc3)n2)C1 (stereo partly shown); 111
2) CC(C)(C)c1nc(-c2cc3c(cc2F)S(=O)(=O)C[C@H](N)C(=O)N3Cc2ccc(F)cc2)no1; 386
3) N[C@H]1CS(=O)(=O)c2cc(F)c(-c3nnc(C4CC4)o3)cc2N(Cc2ccc(Cl)cc2)C1=O; 100
4) CC(=O)N1CCN(c2nnc(-c3cc4c(cc3F)S(=O)(=O)C[C@H](N)C(=O)N4Cc3ccc(Cl)cc3)o2)CC1; 65
5) CC(C)(C)c1nnc(-c2ccc3c(c2)N(Cc2ccc(N4CCCC4)cc2)C(=O)[C@@H](N)CS3(=O)=O)o1; 94

Q: Consider the molecule `COC(=O)N1CC2CC(c3nnc(-c4ccc5c(c4)N(Cc4ccc(OC(F)(F)F)cc4)C(=O)[C@@H](N)CS5(=O)=O)o3)(C2)C1` and give its measured Emax.
A: 102

Q: Consider the molecule N[C@H]1CS(=O)(=O)c2ccc(-c3nnc(C(F)C(F)(F)F)o3)cc2N(Cc2ccc(Cl)cc2)C1=O (stereo partly shown) and give its measured Emax.
A: 114

Numbers sourced from patent US20240368150A1.
